src = a melting point compilation (Tetko et al.)

recorded.endpoint: melting point (°C)
// note: answer is a bare numeric in °C

Quick one: melting point for ClC1=C(Cl)C(Cl)(Cl)C(Cl)(Cl)C1(Cl)Cl ?
40

Dear colleague, I am looking for the recorded melting point of the following molecule: Cc1ccc(N=Nc2ccc(C)cc2)cc1
140

Param item = CCOC(=O)C(=Nn1nnc2ccccc21)C(=O)OCC ; retrieve measured melting point.
100

What value of melting point has been recorded for this entry: N#CCCN1C(=O)COc2ccc(Cl)cc21
131

Tell me the measured melting point of Nc1c([N+](=O)[O-])cc(Cl)cc1[N+](=O)[O-] , please.
147

What melting point value was documented for this molecule, S=C=Nc1ccc(OCc2ccccc2)cc1 ?
64

Look up melting point for this molecule: O=C(Nc1ccccn1)c1cc([N+](=O)[O-])cc([N+](=O)[O-])c1
201
